Assignment: determine reported viability, T/C for the given compounds.
Tested on: 616215-338-R-J1-PDC spheroids with HUVEC/MSC, viability
Assay: Anticancer human tumor 616215-338-R-J1-PDC patient-derived colon adenocarcinoma cell line growth inhibition [PI3K]
Conditions: second compound 0.01 µM; first compound 0.1 µM; stronger effect = lower value
Text: Combinatorial screen of targeted agents with the PI3K inhibitors inavolisib, alpelisib, duvelisib, and copanlisib in multi-cell type tumor spheroids A high-throughput screen of multi-cell type tumor spheroids was designed to identify active combinations of targeted small molecules and PI3K pathway inhibitors. […] Compounds. […] If the clinical Cmax for an agent had not been determined, the highest concentration tested was 10 microM. […]
One number for each entry, in %.

Before answering, review these 4 worked examples.
{"compound": "Cn1ncnc1[C@H]1c2n[nH]c(=O)c3cc(F)cc(c23)N[C@@H]1c1ccc(F)cc1 + COc1c(OCCCN2CCOCC2)ccc2c3n(c(=NC(=O)c4cnc(N)nc4)nc12)CCN3", "viability, T/C / %": 102}
{"compound": "C=CC(=O)N1CCN(c2nc(=O)n(-c3c(C)ccnc3C(C)C)c3nc(-c4c(O)cccc4F)c(F)cc23)C(C)C1 (stereo not given) + COc1c(OCCCN2CCOCC2)ccc2c3n(c(=NC(=O)c4cnc(N)nc4)nc12)CCN3", "viability, T/C / %": 92.2}
{"compound": "CC(=O)c1c(C)c2cnc(Nc3ccc(N4CCNCC4)cn3)nc2n(C2CCCC2)c1=O + COc1c(OCCCN2CCOCC2)ccc2c3n(c(=NC(=O)c4cnc(N)nc4)nc12)CCN3", "viability, T/C / %": 116}
{"compound": "CCN1CCN(Cc2ccc(Nc3ncc(F)c(-c4cc(F)c5nc(C)n(C(C)C)c5c4)n3)nc2)CC1 + CC(Nc1ccc2c(c1)OCCn1cc(N3C(=O)OCC3C(F)F)nc1-2)C(N)=O", "viability, T/C / %": 102}

Now examine the next entry.
For reference, reported viability, T/C for CC(C)n1nc(-c2ccc3oc(N)nc3c2)c2c(N)ncnc21 + COc1c(OCCCN2CCOCC2)ccc2c3n(c(=NC(=O)c4cnc(N)nc4)nc12)CCN3 stands at 67.2

----------
Tested on: 616215-338-R-J1-PDC spheroids with HUVEC/MSC, viability
Experiment: Anticancer human tumor 616215-338-R-J1-PDC cell line growth inhibition [PI3K];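 note: spheroids exposed to agents for seven days before the viability read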
Details: second compound 0.316 µM; first compound 0.1 µM; stronger effect = lower value
Please respond with reported viability, T/C for every item in the list.

Please review the entries below; each comes with its answer.
{"molecule": "CNC(=O)c1ccc(N2C(=S)N(c3ccc(C#N)c(C(F)(F)F)c3)C(=O)C2(C)C)cc1F + CC(Nc1ncnc2nc[nH]c12)c1cc2cccc(Cl)c2c(=O)n1-c1ccccc1", "result": "97%"}
{"molecule": "CCCS(=O)(=O)Nc1ccc(F)c(C(=O)c2c[nH]c3ncc(-c4ccc(Cl)cc4)cc23)c1F + CC(Nc1ccc2c(c1)OCCn1cc(N3C(=O)OCC3C(F)F)nc1-2)C(N)=O", "result": "103%"}
{"molecule": "C=CC(=O)N1CCN(c2nc(=O)n(-c3c(C)ccnc3C(C)C)c3nc(-c4c(O)cccc4F)c(F)cc23)C(C)C1 (stereo not given) + Cc1nc(NC(=O)N2CCCC2C(N)=O)sc1-c1ccnc(C(C)(C)C(F)(F)F)c1", "result": "103%"}
{"molecule": "CC1(C)CCC(CN2CCN(c3ccc(C(=O)NS(=O)(=O)c4ccc(NCC5CCOCC5)c([N+](=O)[O-])c4)c(Oc4cnc5[nH]ccc5c4)c3)CC2)=C(c2ccc(Cl)cc2)C1 + CC(Nc1ccc2c(c1)OCCn1cc(N3C(=O)OCC3C(F)F)nc1-2)C(N)=O", "result": "86.5%"}

Measured viability, T/C of CC1(C)CCC(CN2CCN(c3ccc(C(=O)NS(=O)(=O)c4ccc(NCC5CCOCC5)c([N+](=O)[O-])c4)c(Oc4cnc5[nH]ccc5c4)c3)CC2)=C(c2ccc(Cl)cc2)C1 + CC(Nc1ncnc2nc[nH]c12)c1cc2cccc(Cl)c2c(=O)n1-c1ccccc1 : 103%

----------
Give viability, T/C for every item shown.
Test system: 616215-338-R-J1-PDC spheroids with HUVEC/MSC, viability
Assay: Anticancer human tumor 616215-338-R-J1-PDC cell line growth inhibition [PI3K];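 note: spheroids exposed to agents for seven days before the viability read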
Settings: second compound 0.316 µM; first compound 0.0316 µM; stronger effect = lower value
Numbers only, in %.

Example compounds with recorded viability, T/C:
{"compound": "C#Cc1c(F)ccc2cc(O)cc(-c3ncc4c(N5CC6CCC(C5)N6)nc(OCC56CCCN5CC(F)C6)nc4c3F)c12 (stereo not given) + Cc1nc(NC(=O)N2CCCC2C(N)=O)sc1-c1ccnc(C(C)(C)C(F)(F)F)c1", "test_target": "616215-338-R-J1-PDC spheroids with HUVEC/MSC, viability", "viability, T/C (%)": 95.3}
{"compound": "Cn1nccc1Nc1nccc(-c2ccn(C(CO)c3ccc(Cl)c(F)c3)c(=O)c2)n1 (stereo not given) + CC(Nc1ncnc2nc[nH]c12)c1cc2cccc(Cl)c2c(=O)n1-c1ccccc1", "test_target": "616215-338-R-J1-PDC spheroids with HUVEC/MSC, viability", "viability, T/C (%)": 101}
{"compound": "CC(Cn1ccc(-c2ccc(C#N)c(Cl)c2)n1)NC(=O)c1cc(C(C)O)[nH]n1 (stereo not given) + CC(Nc1ccc2c(c1)OCCn1cc(N3C(=O)OCC3C(F)F)nc1-2)C(N)=O", "test_target": "616215-338-R-J1-PDC spheroids with HUVEC/MSC, viability", "viability, T/C (%)": 109}
{"compound": "C=CC(=O)N1CCN(c2nc(=O)n(-c3c(C)ccnc3C(C)C)c3nc(-c4c(O)cccc4F)c(F)cc23)C(C)C1 (stereo not given) + CC(Nc1ncnc2nc[nH]c12)c1cc2cccc(Cl)c2c(=O)n1-c1ccccc1", "test_target": "616215-338-R-J1-PDC spheroids with HUVEC/MSC, viability", "viability, T/C (%)": 99.7}

Here is the next item to consider.
Record C[C@@H](NC(=O)c1ncnc(N)c1Cl)c1ncc(C(=O)Nc2cc(C(F)(F)F)c(Cl)cn2)s1 + COc1c(OCCCN2CCOCC2)ccc2c3n(c(=NC(=O)c4cnc(N)nc4)nc12)CCN3 has 616215-338-R-J1-PDC spheroids with HUVEC/MSC, viability viability, T/C equal to 54

----------
Test system: 616215-338-R-J1-PDC spheroids with HUVEC/MSC, viability
Test: Anticancer human tumor 616215-338-R-J1-PDC cell line growth inhibition [PI3K];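 note: spheroids exposed to agents for seven days before the viability read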
Conditions: second compound 0.316 µM; first compound 0.00316 µM; stronger effect = lower value
outcome_measure: viability, T/C (%)
Give bare numbers, in %.

Answered examples (5):
{"molecule": "CC(C)n1nc(-c2ccc3oc(N)nc3c2)c2c(N)ncnc21 + CC(Nc1ccc2c(c1)OCCn1cc(N3C(=O)OCC3C(F)F)nc1-2)C(N)=O", "unit_label": "%", "quantitative_readout": 98.8}
{"molecule": "CC(=O)c1c(C)c2cnc(Nc3ccc(N4CCNCC4)cn3)nc2n(C2CCCC2)c1=O + CC(Nc1ncnc2nc[nH]c12)c1cc2cccc(Cl)c2c(=O)n1-c1ccccc1", "unit_label": "%", "quantitative_readout": 98.4}
{"molecule": "CC(C)n1nc(-c2ccc3oc(N)nc3c2)c2c(N)ncnc21 + COc1c(OCCCN2CCOCC2)ccc2c3n(c(=NC(=O)c4cnc(N)nc4)nc12)CCN3", "unit_label": "%", "quantitative_readout": 34.9}
{"molecule": "CC(C)n1nc(-c2ccc3oc(N)nc3c2)c2c(N)ncnc21 + CC(Nc1ncnc2nc[nH]c12)c1cc2cccc(Cl)c2c(=O)n1-c1ccccc1", "unit_label": "%", "quantitative_readout": 118}
{"molecule": "Cn1ncnc1[C@H]1c2n[nH]c(=O)c3cc(F)cc(c23)N[C@@H]1c1ccc(F)cc1 + Cc1nc(NC(=O)N2CCCC2C(N)=O)sc1-c1ccnc(C(C)(C)C(F)(F)F)c1", "unit_label": "%", "quantitative_readout": 89.6}

Please report viability, T/C for every entry that follows.
1. CC(=O)c1c(C)c2cnc(Nc3ccc(N4CCNCC4)cn3)nc2n(C2CCCC2)c1=O + COc1c(OCCCN2CCOCC2)ccc2c3n(c(=NC(=O)c4cnc(N)nc4)nc12)CCN3
2. CC(=O)c1c(C)c2cnc(Nc3ccc(N4CCNCC4)cn3)nc2n(C2CCCC2)c1=O + Cc1nc(NC(=O)N2CCCC2C(N)=O)sc1-c1ccnc(C(C)(C)C(F)(F)F)c1
3. CCN1CCN(Cc2ccc(Nc3ncc(F)c(-c4cc(F)c5nc(C)n(C(C)C)c5c4)n3)nc2)CC1 + COc1c(OCCCN2CCOCC2)ccc2c3n(c(=NC(=O)c4cnc(N)nc4)nc12)CCN3
4. Cn1ncnc1[C@H]1c2n[nH]c(=O)c3cc(F)cc(c23)N[C@@H]1c1ccc(F)cc1 + CC(Nc1ncnc2nc[nH]c12)c1cc2cccc(Cl)c2c(=O)n1-c1ccccc1
5. CC(C)n1nc(-c2ccc3oc(N)nc3c2)c2c(N)ncnc21 + Cc1nc(NC(=O)N2CCCC2C(N)=O)sc1-c1ccnc(C(C)(C)C(F)(F)F)c1
6. CCN1CCN(Cc2ccc(Nc3ncc(F)c(-c4cc(F)c5nc(C)n(C(C)C)c5c4)n3)nc2)CC1 + Cc1nc(NC(=O)N2CCCC2C(N)=O)sc1-c1ccnc(C(C)(C)C(F)(F)F)c1
7. CCN1CCN(Cc2ccc(Nc3ncc(F)c(-c4cc(F)c5nc(C)n(C(C)C)c5c4)n3)nc2)CC1 + CC(Nc1ncnc2nc[nH]c12)c1cc2cccc(Cl)c2c(=O)n1-c1ccccc1

[out]
1: 40.9; 2: 88.1; 3: 36.1; 4: 106; 5: 91.4; 6: 113; 7: 95.2
